measurement-target: T1, hCD47-ECD/Fc protein (Sinobiological) (human, UniProt Q08722 19-139, biotinylated in the Octet assay, sites not stated)
T1 construct: extracellular domain; Bought protein; also called human CD47-Fc antigen; recombinant hCD47-ECD/Fc; not shown: Fc part of the bought fusion protein
T1 sequence (Q08722 19-139 limits assumed): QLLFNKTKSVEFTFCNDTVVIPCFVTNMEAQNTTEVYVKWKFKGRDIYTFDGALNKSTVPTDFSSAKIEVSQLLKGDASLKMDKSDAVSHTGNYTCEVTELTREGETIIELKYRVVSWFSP
assay-explanation: BLI (Octet RED96), biotin-hCD47-ECD/Fc on SA sensors, 1:1 model;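 note: test antibodies as analytes, 300 s association then 300 s dissociation in running buffer, with benchmark reference antibodies run as controls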
Entries annotated with measured kon
Write it as a number; the unit M⁻¹ s⁻¹ goes unstated.

[[record]]
binder = "TY25030 (antibody, V domains shown) VH: EVQLVESGGGLVQPGGSLRLSCAASGYSITSGYYWSWIRQAPGKGLEWIGEIYHSGNTYYNPSLKSRVTISRDNSKNTLYLQLNSLRAEDTAVYYCARRVPLGAFDYWGQGTLVTVSS VL: DIQLTQSPSSLSASVGDRVTITCRASQTVISRYLAWYQQKPGKAPKLLIYDASNLETGVPSRFSGSGSGTDFTLTISSLQPEDFATYYCQQYYAWPLTFGQGTKVEIKR"
obs_value = 361000


Kindly review the next binder as well.
Query TY25040 (antibody, V domains shown) VH: QVQLVQSGAEVKKPGSSVKVSCKASGFTFSDYGIHWVRQAPGQGLEWIGRIYPSGGSTNYAQKFQGRVTITADKSTSTAYMELSSLRSEDTAVYYCARQRGYGRFAYWGQGTLVTVSS VL: DIQLTQSPSSLSASVGDRVTITCSASSSVGYVYWYQQKPGKAPKLLIYDASSLESGVPSRFSGSGSGTDFTLTISSLQPEDFATYFCQQYTYAPFTFGQGTKVEIKR yields kon of 422000
